# Test system: IGROV1 ovarian
# ASSAY_TEXT: NCI-60 one-dose screen, 48 h
# EXPERIMENTAL_CONDITIONS: 10 µM unless noted
The panel holds about 83,000 compounds, 20% with a hit somewhere; the sample as a whole holds those more often. Activity calls are given as the source filed them. The calls were made as follows: active = growth percent below 10; inactive = the rest.
Pick from active, inactive when you respond.

Incoming: Could you kindly confirm the outcome this assay logged for COC(=O)c1cc(=O)nc(N/N=C/c2ccco2)s1 ?
Outgoing: inactive

Incoming: Fill in: this test's call for O=S(=O)(NCCCNc1nccc(-n2ccc3cccnc32)n1)c1cccc(C(F)(F)F)c1 is ___
Outgoing: inactive

###

# Test system: RXF 393 renal
# ASSAY_TEXT: NCI-60 one-dose screen, 48 h (100 = growth as untreated, 0 = no growth, -100 = all killed)
# EXPERIMENTAL_CONDITIONS: 10 µM unless noted
About 83,000 compounds went through this panel and 20% of them were active in at least one assay; those are over-represented in the sample as a whole.
With a cut-off of 60%, any growth strictly below it is called True; any growth meeting it or above is called False.

# count of solved cases: 6
CC(O)CN1CCCCC1 (stereo unspecified) | False
S=C1CC(=S)NC(=S)N1 | False
O=[N+]([O-])c1ccc(-c2cn(-c3ccccc3)c(-c3ccccc3)n2)cc1 | False
COc1cc(/C=C/C(=O)c2cccc(-n3cc(-c4cc(OC)c(OC)c(OC)c4)[nH]c3=O)c2)cc(OC)c1OC | True
OCCCCCCNc1ncnc2cc(Cl)ccc12 | False
C/C=C/C1=CN2C(=O)c3cc(OC4OC(C)C(NC)C(C)(O)C4O)c(C)cc3N=C[C@@H]2C1 (stereo partly specified) | True

Incoming: In the record for COc1ccc(-c2c(-c3cc(OC)c4c(c3)OCO4)noc2N)cc1 , is growth less than 60%?
Outgoing: True

Incoming: Please determine if O=S(=O)(NCCNc1nccc(-c2c(-c3cccc(O)c3)nc3sccn23)n1)c1ccc(F)cc1 is below 60% in terms of growth.
Outgoing: True

Incoming: Field: below-cutoff. Rule: recorded growth strictly less than 60%. Subject: O=C1Nc2ccc(Cl)cc2C12Nc1cc(Cl)ccc1S2 (stereo unspecified)
Outgoing: True

Incoming: Dear reviewer, please state whether COc1cc(NC(N)=NCCC(C)(C)c2ccc(C(F)(F)F)cc2)ncc1C#N has growth strictly beneath 60%.
Outgoing: True

###

# Tested on: CAKI-1 renal
# ASSAY_TEXT: NCI-60 one-dose screen, 48 h
# EXPERIMENTAL_CONDITIONS: 10 µM unless noted
This is part of a sample that, as a whole, favours compounds with a hit. Of some 83,000 tested, about 20% had one in any assay. The source made the active and inactive calls. The calls were made as follows: active = growth percent below 10; inactive = the rest.
A correct response names exactly one class from active, inactive

Use the examples below as a reference point.
COc1cc(-c2nn(C(=O)NS(=O)(=O)c3ccccc3)cc2-c2ccncc2)ccc1Cl | inactive
N/C(=N\C(N)=N\c1nc2ccccc2s1)c1ccncc1 | inactive
COc1cc(C2CC(c3ccc4c(c3)OCO4)=NN2C=O)cc(OC)c1OC (stereo not drawn) | active
CCN(CC)c1ccc2[nH]c3c(C(N)=O)cc(=O)c(=O)c=3oc2c1 | active
O=C(CN1CCN(c2cc3c(cc2F)c(=O)c(C(=O)N/N=C/c2ccccc2O)cn3C2CC2)CC1)N/N=C\c1ccccc1O | active
COc1ccc(/C=C2/C(=O)NC(SCC(=O)N3CCN(c4cc5c(cc4F)c(=O)c(C(=O)O)cn5C4CC4)CC3)=NC2N)cc1OC (stereo not drawn) | inactive
COC(OC)c1ccccc1 | inactive
CC(=O)Nc1ccc(/C=C/C(=O)c2ccccc2)cc1 | inactive
COc1ccc2c(c1)OC1=C(C(=O)OC1)C2c1cc(OC)c2c(c1)OCO2 (stereo not drawn) | inactive
COP(=O)(OC)/C(=N\NS(=O)(=O)c1ccc(C)cc1)c1ccccc1 | inactive

Incoming: Lab log entry: COc1cc(C(=O)/C=C/c2ccc3nc(-c4cc(F)cc(F)c4)sc3c2)cc(OC)c1OC — outcome as called in the assay?
Outgoing: inactive

Incoming: Test call for this molecule, please: O=C([O][Sn]([O]C(=O)c1ccccn1)([c]1ccccc1)[c]1ccccc1)c1ccccn1
Outgoing: inactive

Incoming: Which outcome did this test record for the molecule Cn1cnc2c(N3CCN(C(=O)OCc4ccc5c(Cl)cc(Cl)c(O)c5n4)CC3)nc(Cl)nc21 ?
Outgoing: inactive

Incoming: Recorded call for O=C(O)Cc1cccc(=O)c(O)c1C(=O)O ?
Outgoing: inactive

Incoming: What did this assay record as the result for O=S1(=O)CCC(N(/N=C/c2ccco2)c2ccccc2)C1 (stereo not drawn) ?
Outgoing: inactive

Incoming: Identify the outcome logged in this assay for the molecule shown: O=C(Nc1ccc(NCCN2CCOCC2)nc1)c1ccc([N+](=O)[O-])cc1
Outgoing: inactive

###

# System: A498 renal
# ASSAY_TEXT: NCI-60 one-dose screen, 48 h (100 = growth as untreated, 0 = no growth, -100 = all killed)
# EXPERIMENTAL_CONDITIONS: 10 µM unless noted
This is part of a sample that, as a whole, favours compounds with a hit. Of some 83,000 tested, about 20% had one in any assay. Activity calls are given as the source filed them. Rule for the calls: active = growth percent below 10; inactive = the rest.
REPORTED_PROPERTY: growth

c1ccc(Nc2nc(Nc3ccccc3)nc(Nc3ccccc3)n2)cc1 | 79% (inactive)
CCc1ccc(-c2ccc(=O)n(-c3ccc(S(N)(=O)=O)cc3)n2)cc1 | 40.3% (inactive)
CCCCCCCCCCCC(=O)NCCC[N+](C)(C)CC(=O)[O-] | 91% (inactive)
Cc1ccc2nc(Cl)cc(=O)n2c1 | 107% (inactive)
C=COC(=O)CCCCCCCCC | 96.4% (inactive)

Provide growth for all items below, preserving their order.
1. COc1cc(/C=C/C(=O)c2ccc(Nc3ncnc4cc(OC)c(OC)cc34)cc2)cc(OC)c1
2. CN(C)CCN1C(=O)c2ccc3c4c(ccc(c24)C1=O)C(=O)N(CCN=C=S)C3=O
3. CC1=NC2=CC=CC3=NC(C(Cl)(Cl)Cl)=NC(=N1)N23
4. Cc1cc(N/N=C/c2nc(-c3ccccc3)oc2C)c2cc(Cl)ccc2n1

Outgoing:
95.8% (inactive)
-97.8% (active)
81.9% (inactive)
68.4% (inactive)

###

# Test system: NCI-H226 lung
# ASSAY_TEXT: NCI-60 one-dose screen, 48 h
# EXPERIMENTAL_CONDITIONS: 10 µM unless noted
Compounds without any hit were thinned out: in the full panel of roughly 83,000, 20% have a hit. Activity calls are given as the source filed them. Rule for the calls: active = growth percent below 10; inactive = the rest.
Would you mind answering with one of these outcomes? True (active), False (inactive)

Examples from the recorded data:
CN(C)CCOC(=O)Nc1ccccc1Cl | False
C=C1CCC2C(C)(CO)C(O)CCC2(C)C1C/C=C1/C(=O)OCC1O/C=C/c1ccccc1 (stereo not drawn) | False
COc1ccc(C(=O)N2NC(=O)/C(=C/c3cn(-c4ccccc4)nc3-c3ccccc3)N=C2c2ccccc2)cc1 | False
COc1cccc(CC(C)=C(c2ccc(OCCN3CCCCC3)cc2)c2ccc(OCCN3CCCCC3)cc2)c1 | False
COc1cc(-c2nn(-c3cccc(NC(=O)c4cccc(C(F)(F)F)c4)c3)cc2-c2ccncc2)ccc1Cl | False

Incoming: Outcome? COc1cc(NC(N)=NCCC(C)(C)c2ccc(C(F)(F)F)cc2)ncc1C#N
Outgoing: False

Incoming: Record lookup: outcome of this test for c1ccc(-c2nc(N3CCNCC3)c3nc(-c4ccccc4)oc3n2)cc1 ?
Outgoing: True

Incoming: Query: recorded result category for ClC(Cl)c1nc(-c2ccccc2)nc2cc(-c3ccccc3)nn12 in this test
Outgoing: False

###

Please go through the items and note down their growth.
# Tested on: SN12C renal
# ASSAY_TEXT: NCI-60 one-dose screen, 48 h (100 = growth as untreated, 0 = no growth, -100 = all killed)
# EXPERIMENTAL_CONDITIONS: 10 µM unless noted
Compounds without any hit were thinned out: in the full panel of roughly 83,000, 20% have a hit.
Give bare numbers, in %.

Hi! Can you tell me growth for each of these compounds?
1. COc1ccc(NC(=O)c2c(Nc3ccc(OC)cc3OC)n[nH]c2N)c(OC)c1
2. C1=Cc2ccccc2N(c2nnc(-c3ccccc3)o2)c2ccccc21
3. CN(C)CCCN(c1nc(C(Cl)(Cl)Cl)ns1)c1nc(C(Cl)(Cl)Cl)ns1
4. Cc1ccc2[nH]c(=O)c3c(c2c1)Oc1ncn2nc(-c4ccco4)nc2c1C3c1ccc(Cl)cc1 (centres undefined)

Outgoing:
1: 90; 2: 96.2; 3: 41.8; 4: 96.2

###

# System: SNB-19 CNS
# ASSAY_TEXT: NCI-60 one-dose screen, 48 h (100 = growth as untreated, 0 = no growth, -100 = all killed)
# EXPERIMENTAL_CONDITIONS: 10 µM unless noted
The panel holds about 83,000 compounds, 20% with a hit somewhere; the sample as a whole holds those more often. Calls of active or inactive are those of the source. Rule for the calls: active = growth percent below 10; inactive = the rest.
Would you mind telling me the reported growth of each entry?

// known answers, use as guide
CCCCCCCCCCCC(=O)NCCC[N+](C)(C)CC(=O)[O-] | 88.3% (inactive)
N#Cc1c(-c2ccccc2)nc(SCC(=O)N2CCN(c3ccccc3)CC2)[nH]c1=O | 99.9% (inactive)
Nc1nc(=O)c2ccccc2s1 | 104% (inactive)

Kindly give each listed record's growth.
1. CCO/C=N/C1=C(C#N)C(c2ccc(Cl)cc2)c2c(c3ccc(C)cc3[nH]c2=O)O1 (stereo not given)
2. CCCCN(CCCC)C(=N)c1ccnc2ccccc12
3. CC1=C(C#N)C(=O)NC(C)C1 (stereo not given)

Outgoing:
84.7% (inactive)
115% (inactive)
103% (inactive)
